READOUT KIND: melting point

CSc1nnc(Cc2ccccc2S(N)(=O)=O)s1 : 175 to 178 °C
CC1(C)OC(=S)Nc2ccc(-c3cccc(C#N)c3)cc21 : 236 to 237 °C
COC(=C1C2CC3CC1CC(Cl)(C3)C2)c1cc(O)cc(Cl)c1 : 130 °C

Query string: Request the reported melting point associated with CNC(=O)CN1CCc2cc(Nc3ncc(Cl)c(N[C@@H]4CCCC[C@H]4NS(C)(=O)=O)n3)c(OC)cc2CC1
Result string: 92 to 104 °C

Query string: Name the recorded melting point for CC(C)C1C(=O)N(c2ccc(N=Nc3ccc(N(C)C)cc3)cc2)C(=S)N1C (centres undefined) .
Result string: 164 to 169 °C

Query string: Returns the measured melting point for the input molecule. Input: COc1ccccc1N1CCN(CCCNC(=O)c2cccc3c(=O)c(C)c(-c4cccc5ccccc45)oc23)CC1
Result string: 134 to 138 °C

Query string: Give the measured melting point of O=Cc1c2ccccc2c(OCCO)c2ccccc12 .
Result string: 142 to 144 °C

Query string: Returns the measured melting point for the input molecule. Input: N#CCCNC(=O)c1n[nH]cc1NC(=O)c1ccc(-c2ccccc2)o1
Result string: 228 to 230 °C

Query string: Consider the molecule CCCCCN1C(=O)C2(COc3cc4c(cc32)OCO4)c2c(Cl)ccc(Cl)c21 (centres undefined) and give its measured melting point.
Result string: 106 to 108 °C

----------
READOUT KIND: melting point

Query string: Which melting point value is on record for CCN(CC)C(=O)COc1ccc(CCC(=O)NS(=O)(=O)CCC(C)C)c(Oc2ncc(C(F)(F)F)cc2Cl)c1 ?
Result string: 123 to 125 °C

----------
READOUT KIND: melting point

These solved cases illustrate the format of a correct answer.
CCOC(=O)C(=O)Nc1cccc(NC(=O)C(=O)OCC)c1 : 150 °C
COc1cc(NC(=O)Nc2cnc3c(C)cc(C)cc3c2-c2ccccc2Cl)cc(OC)c1OC : 204 to 206 °C
COc1ccc(-c2[nH]nc3c2C(=O)c2c(NC(=O)NNC(=O)c4ccccc4OC)cccc2-3)cc1 : 269 °C
CCn1ncc2c3onc(-c4cccc(Cl)c4)c3cnc21 : 178 to 179 °C
O=C(O)Cc1c(C(=O)c2ccc3c(c2)OCCO3)[nH]c2cc(Cl)ccc12 : 233 °C
CC(=O)NC[C@H]1CN(c2ccc(-n3cc(-c4ccc(Cl)cc4)cn3)c(F)c2)C(=O)O1 : 238 °C
CCOc1ccc2nc(Cl)c(C=O)cc2c1 : 163 to 164 °C
CCC1Nc2c(C)cccc2-n2cccc21 (stereo not given) : 65 to 68 °C
COc1ccc(N2CCN(c3c(C)c(C)c4c(c3C)CC(C)(C)O4)CC2)cc1 : 152 to 155 °C
Cc1ccccc1OCC(O)CNCCOc1ccc(C(N)=O)cn1 (stereo not given) : 139 to 141 °C

Query string: GET /values?readout=melting point&item= CN(C(=S)Nc1ccc(Cl)cc1Cl)c1cccc(C(=CCCCC(=O)O)c2cccnc2)c1
Result string: 124 to 126 °C

Query string: Which melting point value belongs to CNc1nc(OC(C)C)ccc1[N+](=O)[O-] ?
Result string: 75 to 76 °C

Query string: Field request: melting point | item: CCCCCCCCCCCCCCCCC(O)CCCOC1CCCCO1 (stereo not given)
Result string: 39 to 43 °C

Query string: Given the compound Cc1cc(C)cc(C(=O)N2CC[C@H](NCc3ccnc4ccccc34)C[C@H]2Cc2ccc(Cl)cc2)c1 (relative stereo) , what is its reported melting point?
Result string: 148 to 149 °C

Query string: I'd like to know its melting point. The compound in question is CCCCc1oc2ccccc2c1-c1ncc(-c2ccc3cc(OCc4ccc(C(=O)O)cc4C(=O)O)ccc3c2)o1
Result string: 285 to 287 °C

----------
melting point values, listed per item

Below are worked cases with known answers.
COc1ccccc1S(=O)(=O)N(C)c1cccc2cc(C3=NCC(CC(=O)N4CCC(O)CC4)S3)[nH]c12 (stereo not drawn) : 166 to 167 °C
CCc1cc(Nc2ccc(NC(=O)c3ccccc3S(=O)(=O)O)cc2)n2nccc2n1 : > 320 °C
CCCNc1ncnc2c1ncn2CCCN1CCN(c2ccccc2)CC1 : 67 to 68 °C
CC(C)(C)OC(=O)[C@H](CCSCc1cn(C(c2ccccc2)(c2ccccc2)c2ccccc2)cn1)NC(=O)OCc1ccccc1 : 183 to 185 °C
CCCCCCC(C)(Sc1cc(C(C)(C)C)c(O)c(C(C)(C)C)c1)Sc1cc(C(C)(C)C)c(O)c(C(C)(C)C)c1 : 130 to 133 °C

Query string: Returns the measured melting point for the input compound. Input: O=C(OCC1OC(OC(=O)C2CCCCC2)C(OC(=O)C2CCCCC2)C(OC(=O)C2CCCCC2)C1OC(=O)C1CCCCC1)C1CCCCC1 (stereo not drawn)
Result string: 174 to 176 °C

Query string: # input compound: Brc1ccc(SC23CC4CC(CC(C4)C2)C3)cc1 ; wanted: its melting point
Result string: 121 to 122 °C

Query string: Quick one: melting point of CNc1nc(OC)c(C(=O)O)cc1Br ?
Result string: 224 to 225 °C

----------
Entries and their melting point values follow.

Example compounds with recorded melting point:
CN(C)C=CC(=O)c1ccc(OCC(O)CN2CCN(c3cccc(Cl)c3)CC2)cc1 (stereo not given) : 130 to 133 °C
CCCc1c(OCc2cccc(CC(=O)O)c2)ccc(C(C)=O)c1O : 156 to 158 °C
CN(C)C(=O)CCCOc1ccc2c(c1)C[C@@H](NC(=O)OC(C)(C)C)CC2 : 97 to 101 °C
COc1cc(OCCCN2CCOCC2)c(C=CC(=O)c2ccc(C(N)=O)cc2)cc1-c1cccs1 : 81 to 83 °C
Cc1cccc(NC(=O)NCC(=O)N2[C@@H](C(=O)NC(C)(C)C)CC[C@H]2c2ccccc2)c1 (racemic) : 169 °C

Query string: Looking for the measured melting point of CN1C(C(=O)O)C(=O)c2ccccc2S1(=O)=O (stereo not given) , can you help?
Result string: 144 to 146 °C

Query string: Which value of melting point has been reported for CCCCCCCCCCCCCCOc1ccc(CBr)cc1 in the records?
Result string: 40 to 41 °C

Query string: Consider the compound shown here: CC(NC(N)=S)c1ccc(NS(C)(=O)=O)cc1 (stereo not given) What is its recorded melting point?
Result string: 77 °C

Query string: I am curious: what melting point value has been reported for CCOP(=O)(OCC)C(Nc1ncc(-c2ccccc2)s1)P(=O)(OCC)OCC ?
Result string: 151 to 153 °C

Query string: Name the recorded melting point for CC(C)(C)OC(=O)NCCC[C@@H](CO)NC(=O)OCC1c2ccccc2-c2ccccc21 .
Result string: 107 to 109 °C

Query string: Recorded melting point of Cc1nc2nc(SCc3ccccc3)nn2cc1Cl , please.
Result string: 160 to 161 °C

Query string: So what's the measured melting point for this one? Cc1cccc(NC(=O)c2ccc3nc(NC4CCN(C)CC4)n(Cc4nc(C)ccc4O)c3c2)c1
Result string: 172 °C

Query string: # query: melting point of entry COC(=O)C1Cc2c(cccc2C(C)C)C(=O)CS1 (stereo not given)
Result string: 116 to 117 °C

----------
# key: entry, value: melting point

Answered examples (10):
O=C(c1ccc(Cl)cc1)c1cncnc1 : 110 to 112 °C
CC1(c2n[nH]c(=O)o2)CC1 : 68 to 70 °C
N#Cc1c[nH]c2ccccc2c1=O : 290 to 300 °C
Nc1nc(NC2CC2c2ccccc2)c2ncn(C3C=CC(CO)C3)c2n1 (configuration not stated) : 188 to 190 °C
Cc1cc(CN2N=C(C(F)(F)C(F)(F)F)NC2(O)C(C)(C)C)ccc1[N+](=O)[O-] (configuration not stated) : 125 to 128 °C
O=C(Nc1ccccc1)N1CCN2C(=O)OC(c3ccccc3)(c3ccccc3)C2C1 (configuration not stated) : 117 to 118 °C
CCCc1c(OCCCCOc2ccc(C(=O)c3cccc(C(=O)O)c3)cc2CCC(=O)O)ccc2c1OCCC2=O : 177 to 180 °C
ClCCCCSc1ccncc1 : 80 to 85 °C
O=C1CCCc2c1ccc(OCc1ccccc1)c2CBr : 103 to 104 °C
Cc1cc(OCc2ccc(-c3ccc(OC(F)(F)F)cc3)nc2)ccc1OC(C)(C)C(=O)O : 146 to 148 °C

Query string: Any idea what melting point was measured for COc1ccc(COC(=O)ON=C(C#N)c2ccccc2)cc1 ?
Result string: 112 to 113 °C

Query string: Suppose we examine the compound O=C(Nc1cc2ccccc2oc1=O)c1ccccc1NCc1ccncc1 ; what melting point value has been reported?
Result string: 195 to 197 °C

Query string: Quick check: melting point of CCOCc1nc2c(N)nc3ccccc3c2n1CCCC(N)=O ?
Result string: 233 to 235 °C

Query string: GET /values?readout=melting point&item= Oc1ccc2c(c1)C(Cc1c[nH]cn1)CC2 (configuration not stated)
Result string: 206 to 208 °C

Query string: State the recorded melting point for this entry: C/C(=C\CC1OC(=O)NC1=O)c1cccc(Cc2nc(-c3ccccc3)oc2C)c1 (configuration not stated)
Result string: 138 to 139 °C

Query string: Could you share which melting point value was measured for NC1=CC(=O)C2CCCCC2C1 (configuration not stated) ?
Result string: 208 to 210 °C

Query string: Report melting point for COc1ccc2c(c1)CCC(c1ccc(OC)cc1OC)C2=O (configuration not stated) please.
Result string: 116 to 118 °C
